Data provenance: patent US20050148653A1

# System: Chlamydia trachomatis
# PROCEDURE TEXT: Chlamydia assay: transient treatment of Chlamydia with maleimides, infection of McCoy cells, iodine-stained inclusions counted
# Format: cell-based
# MEASUREMENT CONTEXT: final conc 0.4 (M), working conc 0.8 (M); field 3
OBSERVED PROPERTY: IODINE-STAINED INCLUSIONS/FIELD F3 (inclusions/field)
Express the result in inclusions/field but write the number alone.

O=C1C=CC(=O)N1c1ccc(OCCOCCOCCOCCOc2ccc(N3C(=O)C=CC3=O)cc2)cc1 [Compound 2, PEG(5) bis phenyl bis maleimide] ... 2
CCN1C(=O)C=CC1=O [Compound 4, Ethyl maleimide] ... 0
O=C1C=CC(=O)N1CCN1C(=O)C=CC1=O [Compound 1, ethyl bis-maleimide] ... 0

Measured IODINE-STAINED INCLUSIONS/FIELD F3 (Chlamydia trachomatis), entry COCCOCCOCCOCCOc1ccc(N2C(=O)C=CC2=O)cc1 [Compound 3, PEG(5) phenyl maleimide] : 5

---

# Tested on: Chlamydia trachomatis
# PROCEDURE TEXT: Chlamydia assay: transient treatment of Chlamydia with maleimides, infection of McCoy cells, iodine-stained inclusions counted
# Type: cell-based
# MEASUREMENT CONTEXT: final conc 0.4 (M), working conc 0.8 (M); sum of 5 fields
OBSERVED PROPERTY: TOTAL COUNT/FIELDS (iodine-stained inclusions)
Note: the reply should be a number with no unit written.

O=C1C=CC(=O)N1c1ccc(OCCOCCOCCOCCOc2ccc(N3C(=O)C=CC3=O)cc2)cc1 [Compound 2, PEG(5) bis phenyl bis maleimide] ... 11
CCN1C(=O)C=CC1=O [Compound 4, Ethyl maleimide] ... 0
COCCOCCOCCOCCOc1ccc(N2C(=O)C=CC2=O)cc1 [Compound 3, PEG(5) phenyl maleimide] ... 28

Read the next record carefully.
So, O=C1C=CC(=O)N1CCN1C(=O)C=CC1=O [Compound 1, ethyl bis-maleimide] ? Its TOTAL COUNT/FIELDS (iodine-stained inclusions) was 0

---

Quick reference for IODINE-STAINED INCLUSIONS/FIELD F2 among some compounds
# Tested on: Chlamydia trachomatis
# PROCEDURE TEXT: Chlamydia assay: transient treatment of Chlamydia with maleimides, infection of McCoy cells, iodine-stained inclusions counted
# Assay type: cell-based
# MEASUREMENT CONTEXT: final conc 0.4 (M), working conc 0.8 (M); field 2
The response must be a number in inclusions/field with no trailing unit.

CCN1C(=O)C=CC1=O [Compound 4, Ethyl maleimide] ... 0

Measured IODINE-STAINED INCLUSIONS/FIELD F2 (Chlamydia trachomatis), entry O=C1C=CC(=O)N1c1ccc(OCCOCCOCCOCCOc2ccc(N3C(=O)C=CC3=O)cc2)cc1 [Compound 2, PEG(5) bis phenyl bis maleimide] : 2

Item COCCOCCOCCOCCOc1ccc(N2C(=O)C=CC2=O)cc1 [Compound 3, PEG(5) phenyl maleimide] was tested on Chlamydia trachomatis; the reported IODINE-STAINED INCLUSIONS/FIELD F2 is 7

Considering O=C1C=CC(=O)N1CCN1C(=O)C=CC1=O [Compound 1, ethyl bis-maleimide] , its IODINE-STAINED INCLUSIONS/FIELD F2 with Chlamydia trachomatis was recorded as 0

---

# Tested on: HIV (IHV-1RF)
# PROCEDURE TEXT: Anti-viral (virucidal) assay: plate-bound HIV treated 10 minutes, C8166 cells added, syncytium score and XTT
# Format: cell-based
# MEASUREMENT CONTEXT: Conc 0.3 mM; C8166 cells; day 6
OBSERVED PROPERTY: Syncytia score day 6 (quadruplicate wells)

COCCOCCOCCOCCOc1ccc(N2C(=O)C=CC2=O)cc1 [Compound 3, PEG(5) phenyl maleimide] ... ++++ (50-100% syncytia)
O=C1C=CC(=O)N1c1ccc(OCCOCCOCCOCCOc2ccc(N3C(=O)C=CC3=O)cc2)cc1 [Compound 2, PEG(5) bis phenyl bis maleimide] ... ++++ (50-100% syncytia)
CCN1C(=O)C=CC1=O [Compound 4, Ethyl maleimide] ... ++++ (50-100% syncytia)
